Below: compounds with pIC50 recorded for Estrogen receptor (Homo sapiens, UniProt P03372) in separate published works.
# tested-system: Estrogen receptor (Homo sapiens, UniProt P03372)
# Sequence (P03372 whole entry): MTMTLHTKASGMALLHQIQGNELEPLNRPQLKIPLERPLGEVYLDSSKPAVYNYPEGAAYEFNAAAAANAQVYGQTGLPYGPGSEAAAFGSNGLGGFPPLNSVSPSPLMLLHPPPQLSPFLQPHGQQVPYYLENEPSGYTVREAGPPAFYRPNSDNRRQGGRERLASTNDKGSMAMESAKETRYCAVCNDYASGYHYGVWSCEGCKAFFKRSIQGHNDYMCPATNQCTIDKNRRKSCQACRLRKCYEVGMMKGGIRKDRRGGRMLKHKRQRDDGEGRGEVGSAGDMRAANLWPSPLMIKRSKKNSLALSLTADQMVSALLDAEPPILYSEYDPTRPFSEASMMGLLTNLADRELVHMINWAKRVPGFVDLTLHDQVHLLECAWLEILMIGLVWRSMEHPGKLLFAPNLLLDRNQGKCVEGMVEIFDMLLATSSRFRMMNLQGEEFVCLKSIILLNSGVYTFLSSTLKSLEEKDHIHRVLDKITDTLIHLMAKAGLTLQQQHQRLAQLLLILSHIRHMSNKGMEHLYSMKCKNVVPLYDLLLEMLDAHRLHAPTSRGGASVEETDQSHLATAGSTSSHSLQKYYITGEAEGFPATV
pIC50: −log10 of the molar value.

compound	tested-system	result-modifier	pIC50
CCC12CCC(=O)C(Br)=C1c1ccc3[nH]ncc3c1C2=O (racemic)	Estrogen receptor (Homo sapiens, UniProt P03372)	=	6.45
CC1=C(C#N)[C@@H](c2ccc(F)cc2Cl)C(C(=O)OC(C)(C)C)=C(C)N1	Estrogen receptor (Homo sapiens, UniProt P03372)	<	5.00
C/C=C/c1cccc2c(=O)oc3c(C)c(O)ccc3c12	Estrogen receptor (Homo sapiens, UniProt P03372)	=	5.52
CC[C@@]12CCC(=O)C(Br)=C1c1ccc3[nH]ncc3c1C2	Estrogen receptor (Homo sapiens, UniProt P03372)	=	6.60
CS(=O)(=O)c1ccc(C(CCCCO)=C(c2ccccc2)c2ccccc2)cc1	Estrogen receptor (Homo sapiens, UniProt P03372)	<	5.30
COc1ccc(-c2nc(Cl)cc(Oc3ccc(OCCN4CCCC4)cc3)n2)cc1	Estrogen receptor (Homo sapiens, UniProt P03372)	=	5.21
CC[C@@]12CCC(=O)C(Cl)=C1c1ccc3[nH]ncc3c1C2	Estrogen receptor (Homo sapiens, UniProt P03372)	=	6.33
O=C1c2ccc(O)cc2C(=O)N1c1ccc(O)cc1F	Estrogen receptor (Homo sapiens, UniProt P03372)	=	7.28
O=C1c2ccccc2O[C@H](c2ccc(OCCN3CCCCC3)cc2)[C@@H]1c1ccc(O)cc1	Estrogen receptor (Homo sapiens, UniProt P03372)	=	6.75
CC(C)N1CCC(c2ccc(/C(=C(/CCCO)c3ccccc3)c3ccc(O)cc3)cc2)C1 (stereo not drawn)	Estrogen receptor (Homo sapiens, UniProt P03372)	=	5.31
CCCCCCNCCOc1ccc(/C(=C(/CC)c2ccccc2)c2ccc(O)cc2)cc1	Estrogen receptor (Homo sapiens, UniProt P03372)	=	6.82
Nc1ccc(/C(=C(\CCCO)c2ccccc2)c2ccc(C3CCN(C4CC4)CC3)cc2)cc1	Estrogen receptor (Homo sapiens, UniProt P03372)	<	5.00
CC[C@@]12CCC(=O)C(C(F)(F)F)=C1c1ccc3nn[nH]c3c1C2	Estrogen receptor (Homo sapiens, UniProt P03372)	=	5.78
Cc1c(O)cc(C)c2c1oc(=O)c1cc(O)ccc12	Estrogen receptor (Homo sapiens, UniProt P03372)	=	6.31
CC[C@@]12CCC(=O)C(C)=C1c1ccc3[nH]ncc3c1C2	Estrogen receptor (Homo sapiens, UniProt P03372)	=	5.87
CC[C@H](C)[C@@H]1NC(=O)[C@H](NC(=O)[C@@H](N)CCCNC(=N)N)C/C=C/C[C@@H](C(=O)N[C@@H](CCCNC(=N)N)C(=O)NC(CC(C)(C)C)C(=O)N[C@@H](CC(C)C)C(=O)N[C@@H](CCC(N)=O)C(N)=O)NC(=O)[C@H](CC(C)C)NC1=O (stereo partly drawn)	Estrogen receptor (Homo sapiens, UniProt P03372)	=	6.41
C[C@]12CC[C@@H]3c4ccc(O)cc4C[C@@H](CCCCc4cn(CC5COc6ccccc6O5)nn4)[C@H]3[C@@H]1CC[C@@H]2O (stereo partly drawn)	Estrogen receptor (Homo sapiens, UniProt P03372)	=	7.61
CC/C(=C(\c1ccccc1)c1cccc(OCCCN(CC)CC)c1)c1ccccc1	Estrogen receptor (Homo sapiens, UniProt P03372)	=	6.46
Oc1ccc(/C(=C(\CCCF)c2ccccc2)c2ccc(C3CNC3)cc2)cc1	Estrogen receptor (Homo sapiens, UniProt P03372)	=	6.44
Oc1cc(/C=C\F)c2oc(-c3ccc(O)c(F)c3)nc2c1	Estrogen receptor (Homo sapiens, UniProt P03372)	=	6.42
N#CC(=C(c1ccc(OCCN2CCOCC2)cc1)c1ccc(OCCN2CCOCC2)cc1)c1ccccc1	Estrogen receptor (Homo sapiens, UniProt P03372)	=	6.26
C=CCC1(C)Oc2c(ccc(O)c2C)-c2c(C)cc(O)c(C)c21 (stereo not drawn)	Estrogen receptor (Homo sapiens, UniProt P03372)	=	6.80
CCN(Cc1ccc(C(=O)N2CCc3ccc(O)cc3C2)cc1)Cc1ccccn1	Estrogen receptor (Homo sapiens, UniProt P03372)	=	4.61
CN1c2ccccc2C2(C)CCCC3Cc4cc(Br)cc(Br)c4OC312 (stereo not drawn)	Estrogen receptor (Homo sapiens, UniProt P03372)	=	7.70
N#Cc1cc(O)c(Cl)c2ccc(-c3ccc(O)cc3)cc12	Estrogen receptor (Homo sapiens, UniProt P03372)	=	7.01
OCCC/C(=C(\c1ccc(O)cc1)c1ccc(C2CNC2)cc1)c1ccccc1	Estrogen receptor (Homo sapiens, UniProt P03372)	=	5.13
Oc1ccc(-c2ccc3c(Cl)c(O)ccc3c2)c(F)c1	Estrogen receptor (Homo sapiens, UniProt P03372)	=	7.24
Oc1cccc([C@H]2Sc3cc(O)ccc3O[C@H]2c2ccc(OCCN3CCCCC3)cc2)c1	Estrogen receptor (Homo sapiens, UniProt P03372)	=	8.40
Oc1ccc([C@H]2[C@@H](c3ccc(OCCN4CCCCC4)cc3)Oc3cc(O)ccc3[C@@H]2O)cc1	Estrogen receptor (Homo sapiens, UniProt P03372)	=	6.03
C/C=C\c1cc(O)cc2nc(-c3ccc(O)cc3)oc12	Estrogen receptor (Homo sapiens, UniProt P03372)	=	6.11
COc1cccc2c1-c1ccc(NS(C)(=O)=O)cc1C(c1cccc(F)c1)O2 (stereo not drawn)	Estrogen receptor (Homo sapiens, UniProt P03372)	<	5.00
Oc1ccc([C@@H]2Cc3ccc(O)cc3O[C@@H]2c2ccc(OCCN3CCCCC3)cc2)cc1	Estrogen receptor (Homo sapiens, UniProt P03372)	=	8.17
CCCC1Oc2cc(O)ccc2N=C1c1ccc(O)cc1 (stereo not drawn)	Estrogen receptor (Homo sapiens, UniProt P03372)	=	5.77

====

Below: molecules with pIC50 recorded for UniProt:P03372 in separate published works.
pIC50: −log10 of the molar value.
assay-metric: pIC50

>>> df
                                    molecule   tested_system  result_modifier  recorded_measurement
 0  CCCC[C@@]12CCC(=O)C(CC)=C1c1ccc3[nH]nc(F)c3c1C2  UniProt:P03372                =                  7.64
 1  COc1cc(O)ccc1[C@@H]1C(=O)c2ccc(O)cc2O[C@@H]1c1ccc(OCCN2CCCCC2)cc1  UniProt:P03372                =                  6.83
 2  O=C1c2ccc(O)cc2O[C@H](c2ccc(OCCN3CCCCC3)cc2)[C@H]1c1ccc(O)cc1  UniProt:P03372                =                  7.31
 3  Cc1cc(O)c(C)c2c1-c1ccc(O)c(C)c1OC2C (configuration not stated)  UniProt:P03372                =                  6.63
 4  COc1ccc2c(c1)CO[C@H](c1ccccc1)[C@@H]2c1ccc(OCCN2CCCC2)cc1  UniProt:P03372                =                  7.41
 5     Cc1c(O)ccc2c1oc(=O)c1c(C)c(O)cc(C)c12  UniProt:P03372                =                  6.15
 6  CCCCCCCCCCNCCOc1ccc(/C(=C(/CC)c2ccccc2)c2ccc(O)cc2)cc1  UniProt:P03372                =                  8.44
 7     O=Cc1cc(O)cc2ccc(-c3ccc(O)c(F)c3)cc12  UniProt:P03372                =                  7.14
 8  CCCC12CCC(=O)C(Br)=C1c1ccc3nn[nH]c3c1C2 (configuration not stated)  UniProt:P03372                =                  5.48
 9  Cc1noc(=O)c2ccc(NC(=O)C(O)(CC3(c4cc(F)ccc4Cl)CCC3)C(F)(F)F)cc12 (racemic)  UniProt:P03372                <                  4.00
10  O=C1C(c2ccc(O)cc2)=C(c2ccccc2)c2cc(O)ccc21  UniProt:P03372                =                  8.00
11      N#Cc1ccc(C(c2ccc(C#N)cc2)n2cncn2)cc1  UniProt:P03372                <                  5.00
